type: in vitro ADME, Rat; details: clearance in microsomes
Quantity Name: Microsomal Stability Rat (%Qh)
Report as a plain number; the unit %Qh is understood.

**Q:** Can you share its Microsomal Stability Rat? I mean this molecule: CCCCCn1cc(C[C@@H]2NC(=O)[C@H](CC(C)C)N(C)C(=O)[C@H](C(C)C)NC(=O)[C@H]([C@H](OC)c3ccccc3)NC(=O)[C@H](C)NC(=O)[C@H](C[C@@H](C)CO)N(C)C(=O)[C@H](Cc3cn(C)c4ccccc34)N(C)C2=O)nn1 [Compound 25]
**A:** 62

---

test: in vitro; details: human, Caco-2, CACO permeability PEAB
Where a SMILES comes first, the peptide text is derived from it. [ ]: non-standard residue; d: D form. NMeTrp(1-Me) = CN[C@@H](Cc1cn(C)c2ccccc12)C(=O)O; NMeLeu(5-OH,4R) = CN[C@@H](C[C@@H](C)CO)C(=O)O; Phe(βR-OMe) = CO[C@H](c1ccccc1)[C@H](N)C(=O)O; NMeL = CN[C@@H](CC(C)C)C(=O)O; Pra = C#CC[C@H](N)C(=O)O
Quantity Name: Papp A→B (×10⁻⁶ cm/s)
Just the number in ×10⁻⁶ cm/s, nothing appended.

**Q:** Papp A→B lookup needed for C#CC[C@@H]1NC(=O)[C@H](CC(C)C)N(C)C(=O)[C@H](C(C)C)NC(=O)[C@H]([C@H](OC)c2ccccc2)NC(=O)[C@H](C)NC(=O)[C@H](C[C@@H](C)CO)N(C)C(=O)[C@H](Cc2cn(C)c3ccccc23)N(C)C1=O [Compound 20] (cyclo(A[Phe(βR-OMe)]V[NMeL][Pra][NMeTrp(1-Me)][NMeLeu(5-OH,4R)])) , thanks.
**A:** 2

---

Known Hepatocyte Stability Rat QH of a selection of compounds
type: in vitro ADME, Rat; conditions: rat, pH 7.4
*1 amine or outer side, *2 acyl side, *3 side chain or, on linkers, in order; H or OH if unused. Where a SMILES comes first, the peptide text is derived from it. [ ]: non-standard residue; d: D form. X2 = C#CCn1cc(C[C@@H](C(=O)[*:2])N(C)[*:1])c2ccccc21; X1 = C#CCn1cc(C[C@H](N[*:1])C(=O)[*:2])c2ccccc21; NMeLeu(5-OH,4R) = CN[C@@H](C[C@@H](C)CO)C(=O)O; Phe(βR-OMe) = CO[C@H](c1ccccc1)[C@H](N)C(=O)O; NMeL = CN[C@@H](CC(C)C)C(=O)O

**Q:** Please give the measured Hepatocyte Stability Rat QH for this compound: CO[C@H](c1ccccc1)[C@@H]1NC(=O)[C@H](C)NC(=O)[C@H](C[C@@H](C)CO)N(C)C(=O)[C@H](Cc2cn(Cc3cn(CCOCCOCCOCCOCCn4cc(Cn5cc(C[C@H]6C(=O)N(C)[C@@H](C[C@@H](C)CO)C(=O)N[C@@H](C)C(=O)N[C@@H]([C@H](OC)c7ccccc7)C(=O)N[C@@H](C(C)C)C(=O)N(C)[C@@H](CC(C)C)C(=O)N[C@@H](C(C)C)C(=O)N6C)c6ccccc65)nn4)nn3)c3ccccc23)N(C)C(=O)[C@H](C(C)C)NC(=O)[C@H](CC(C)C)N(C)C(=O)[C@H](C(C)C)NC1=O
**A:** 6.192%

**Q:** Entry to check: C#CCn1cc(C[C@@H]2NC(=O)[C@H](C(C)C)NC(=O)[C@H](CC(C)C)N(C)C(=O)[C@H](C(C)C)NC(=O)[C@H]([C@H](OC)c3ccccc3)NC(=O)[C@H](C)NC(=O)[C@H](C[C@@H](C)CO)N(C)C2=O)c2ccccc21 [Compound 5] (cyclo(A[Phe(βR-OMe)]V[NMeL]V[X1][NMeLeu(5-OH,4R)]))
**A:** 51.066%

**Q:** Also, C#CCn1cc(C[C@H]2C(=O)N(C)[C@@H](C[C@@H](C)CO)C(=O)N[C@@H](C)C(=O)N[C@@H]([C@H](OC)c3ccccc3)C(=O)N[C@@H](C(C)C)C(=O)N(C)[C@@H](CC(C)C)C(=O)N[C@@H](C(C)C)C(=O)N2C)c2ccccc21 [Compound 26] (cyclo(A[Phe(βR-OMe)]V[NMeL]V[X2][NMeLeu(5-OH,4R)])) please.
**A:** 67.861%

---

test system: Staphylococcus aureus; assay: MIC ESKAPES panel, Staphylococcus aureus; type: cell-based; conditions: Staphylococcus aureus; Gram-Positive Bacteria; replicates 1-3
Quantity Name: MIC

**Q:** Recorded MIC of COC(c1ccccc1)C1NC(=O)C(C)NC(=O)C(CC(C)CO)N(C)C(=O)C(Cc2cn(C)c3ccccc23)NC(=O)C(Cc2cn(CCCCCn3cc(CC4NC(=O)C(CC(C)C)N(C)C(=O)C(C(C)C)NC(=O)C(C(OC)c5ccccc5)NC(=O)C(C)NC(=O)C(CC(C)CO)N(C)C(=O)C(Cc5cn(C)c6ccccc56)NC4=O)nn3)nn2)NC(=O)C(CC(C)C)N(C)C(=O)C(C(C)C)NC1=O (stereo not shown) , please.
**A:** > 99 µg/mL

---

Assay: in vivo
Format: in vivo, BALB/cAnNCrl mice
Details: male, BALB/cAnNCrl, mouse, in vivo, iv, 1.062 umol/kg, iv bolus, individual animals 1-3; read-out: MRT
Experimental: The in-life experimental procedures were conducted in strict compliance with German and European animal welfare legislation in an AAALAC-accredited facility. Male BALB/cAnNCrl mice (Charles River Laboratories Research Models and Services, 97633 Sulzfeld, Germany) were used. […] In case of incomplete dissolution, the formulation was filtered at 40 °C (non-pyrogenic sterile-R filter, 0.2 µm). […] Actual test item content was determined bioanalytically. […]
*1 amine or outer side, *2 acyl side, *3 side chain or, on linkers, in order; H or OH if unused. Where a SMILES comes first, the peptide text is derived from it. [ ]: non-standard residue; d: D form. X1 = C#CCn1cc(C[C@H](N[*:1])C(=O)[*:2])c2ccccc21; NMeLeu(5-OH,4R) = CN[C@@H](C[C@@H](C)CO)C(=O)O; Phe(βR-OMe) = CO[C@H](c1ccccc1)[C@H](N)C(=O)O; NMeL = CN[C@@H](CC(C)C)C(=O)O
Quantity Name: MRT (min)
Give the value in min but do not write min after it.

**Q:** Field request: MRT | item: C#CCn1cc(C[C@@H]2NC(=O)[C@H](C(C)C)NC(=O)[C@H](CC(C)C)N(C)C(=O)[C@H](C(C)C)NC(=O)[C@H]([C@H](OC)c3ccccc3)NC(=O)[C@H](C)NC(=O)[C@H](C[C@@H](C)CO)N(C)C2=O)c2ccccc21 [Compound 5] (cyclo(A[Phe(βR-OMe)]V[NMeL]V[X1][NMeLeu(5-OH,4R)]))
**A:** 36

---

biological target: His6-tagged ClpC1-NTD substrate, M. smegmatis ClpC1P1P2 (UniProt A0R574+P9WPC9); assay: biochemical; format: biochemical; details: Msm; mean of the measurements; read-out: 1-Dmax, Mean
Sequence (P9WPC9 1-156, looked up, natural form): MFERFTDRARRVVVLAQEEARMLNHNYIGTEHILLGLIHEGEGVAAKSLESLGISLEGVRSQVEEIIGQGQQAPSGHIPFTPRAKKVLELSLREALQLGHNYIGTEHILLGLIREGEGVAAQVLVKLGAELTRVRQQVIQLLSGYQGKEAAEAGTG
Sequence (A0R574 whole entry): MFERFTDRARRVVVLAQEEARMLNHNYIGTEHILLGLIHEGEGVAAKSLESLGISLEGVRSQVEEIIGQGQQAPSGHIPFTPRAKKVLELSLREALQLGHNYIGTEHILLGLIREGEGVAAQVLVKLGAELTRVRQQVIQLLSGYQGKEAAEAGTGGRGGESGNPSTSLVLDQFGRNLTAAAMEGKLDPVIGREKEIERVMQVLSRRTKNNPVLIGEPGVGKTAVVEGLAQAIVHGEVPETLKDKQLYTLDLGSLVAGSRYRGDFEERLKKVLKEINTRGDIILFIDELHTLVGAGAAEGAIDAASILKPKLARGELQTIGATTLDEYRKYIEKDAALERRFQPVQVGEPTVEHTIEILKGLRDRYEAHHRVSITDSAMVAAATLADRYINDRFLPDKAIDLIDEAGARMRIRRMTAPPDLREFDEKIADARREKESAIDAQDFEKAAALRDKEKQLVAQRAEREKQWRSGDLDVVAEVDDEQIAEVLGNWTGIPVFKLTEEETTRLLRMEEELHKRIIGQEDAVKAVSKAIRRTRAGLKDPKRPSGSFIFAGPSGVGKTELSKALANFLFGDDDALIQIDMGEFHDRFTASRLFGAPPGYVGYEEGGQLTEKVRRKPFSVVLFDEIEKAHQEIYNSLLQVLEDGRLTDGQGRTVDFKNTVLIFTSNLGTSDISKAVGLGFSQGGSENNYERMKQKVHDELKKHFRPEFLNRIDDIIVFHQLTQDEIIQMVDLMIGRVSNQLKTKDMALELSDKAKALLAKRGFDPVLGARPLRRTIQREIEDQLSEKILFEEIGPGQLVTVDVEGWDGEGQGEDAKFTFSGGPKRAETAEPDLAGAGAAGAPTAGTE
Recorded 1-Dmax (percent substrate remaining at maximal degradation) values for a group of compounds are listed next.
Express it in %; write the number only.

>  <Molecule Smiles>
CO[C@H](c1ccccc1)[C@@H]1NC(=O)[C@H](C)NC(=O)[C@H](C[C@@H](C)CO)N(C)C(=O)[C@H](Cc2cn(C)c3ccccc23)NC(=O)[C@H](Cc2cn(CCOCCOCCn3cc(C[C@@H]4NC(=O)[C@H](CC(C)C)N(C)C(=O)[C@H](C(C)C)NC(=O)[C@H]([C@H](OC)c5ccccc5)NC(=O)[C@H](C)NC(=O)[C@H](C[C@@H](C)CO)N(C)C(=O)[C@H](Cc5cn(C)c6ccccc56)NC4=O)nn3)nn2)NC(=O)[C@H](CC(C)C)N(C)C(=O)[C@H](C(C)C)NC1=O

>  <Numeric Result>
87

$$$$

Read the next record carefully.
**Q:** What value of 1-Dmax (percent substrate remaining at maximal degradation) has been recorded for this entry: CO[C@H](c1ccccc1)[C@@H]1NC(=O)[C@H](C)NC(=O)[C@H](C[C@@H](C)CO)N(C)C(=O)[C@H](Cc2cn(Cc3cn(CCOCCOCCOCCOCCn4cc(Cn5cc(C[C@H]6C(=O)N(C)[C@@H](C[C@@H](C)CO)C(=O)N[C@@H](C)C(=O)N[C@@H]([C@H](OC)c7ccccc7)C(=O)N[C@@H](C(C)C)C(=O)N(C)[C@@H](CC(C)C)C(=O)N[C@@H](C(C)C)C(=O)N6C)c6ccccc65)nn4)nn3)c3ccccc23)N(C)C(=O)[C@H](C(C)C)NC(=O)[C@H](CC(C)C)N(C)C(=O)[C@H](C(C)C)NC1=O
**A:** 91

---

tested on: Msm 700084; experiment: microbe, parasite or virus in culture; type: cell-based; details: Mycolicibacterium smegmatis, 700084; read-out: MIC Msm 700084
Quantity Name: MIC

**Q:** If you can, please state the reported MIC value of CO[C@H](c1ccccc1)[C@@H]1NC(=O)[C@H](C)NC(=O)[C@H](C[C@@H](C)CO)N(C)C(=O)[C@H](Cc2cn(C)c3ccccc23)N(C)C(=O)[C@H](Cc2cn(CCCCCn3cc(C[C@@H]4NC(=O)[C@H](CC(C)C)N(C)C(=O)[C@H](C(C)C)NC(=O)[C@H]([C@H](OC)c5ccccc5)NC(=O)[C@H](C)NC(=O)[C@H](C[C@@H](C)CO)N(C)C(=O)[C@H](Cc5cn(C)c6ccccc56)N(C)C4=O)nn3)nn2)NC(=O)[C@H](CC(C)C)N(C)C(=O)[C@H](C(C)C)NC1=O .
**A:** > 50 µM
